From: PubChem BioAssay (NCATS)

Assay Notes: qHTS profiling of the MIPE4 collection as inhibitors of Plasmodium falciparum (HB3) proliferation (AID 743347);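 note: plate controls were DMSO vehicle wells for no effect and artemisinin wells for full effect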
Test Context: P. falciparum HB3 in erythrocytes, SYBR Green DNA, 72 h; at 28.5 µM (top of the series)
One threshold, 80%, splits the recorded growth, % of control values: lower ones are true (1), equal or higher ones are false (0).

Ask: A record lists C[C@]12CC[C@@H]3[C@@H](CCC4=CC(=O)CC[C@@H]43)[C@@H]1CC[C@@H]2OC(=O)CCc1ccccc1 . Is its growth, % of control below 80%?
Result: false (0)

Ask: Would you kindly verify if growth, % of control of CC(=O)N(C)c1cccc(-c2ccnc3c(C(=O)c4cccs4)cnn23)c1 is strictly less than 80%?
Result: true (1)

Ask: Dear reviewer, please state whether C=C[C@@H]1CN2CCC1C[C@@H]2[C@@H](O)c1ccnc2ccccc12 (stereo partly drawn) has growth, % of control strictly beneath 80%.
Result: true (1)

Ask: State whether 80% exceeds growth, % of control recorded for CCOC(=O)Nc1ccc(NCc2ccc(F)cc2)cc1N .
Result: true (1)

Ask: For this compound, is growth, % of control lower than 80%? CC(=Cc1csc(C)n1)[C@@H]1C[C@H]2O[C@@H]2CCC[C@H](C)[C@@H](O)[C@@H](C)C(=O)C(C)(C)[C@@H](O)CC(=O)O1
Result: true (1)

Ask: Does the reported growth, % of control of the following compound sit strictly below 80%? O=C(N[C@@H](COc1ccc2[nH]c(=O)[nH]c2c1)c1ccccc1)c1cccn(Cc2ccc(F)c(F)c2)c1=O
Result: true (1)

Ask: Lab note: growth, % of control threshold 80%. Does this compound come in strictly under it? CC=C(C)C(=O)N[C@@H](c1ccccc1)[C@@H](O)C(=O)O[C@H]1C[C@@]2(O)[C@@H](OC(=O)c3ccccc3)[C@@H]3[C@]4(OC(C)=O)CO[C@@H]4C[C@H](O)[C@@]3(C)C(=O)[C@H](OC(C)=O)C(=C1C)C2(C)C
Result: true (1)

Ask: Decide: growth, % of control of NC1=NC(=O)N2CC12 (stereo not drawn) strictly below 80%?
Result: true (1)

Ask: Does this compound meet the criterion growth, % of control < 80%? CCNC(=O)CC1N=C(c2ccc(Cl)cc2)c2cc(OC)ccc2-n2c(C)nnc21 (stereo not drawn)
Result: true (1)

Ask: Decide: growth, % of control of CCCCN1CCC(CNC(=O)c2c3n(c4ccccc24)CCCO3)CC1 strictly below 80%?
Result: true (1)

Ask: A record lists CC(=O)OCC1=C(C(=O)O)N2C(=O)[C@@H](N)[C@@H]2SC1 . Is its growth, % of control below 80%?
Result: false (0)

Ask: Dear colleague, could you confirm whether growth, % of control of COC(=O)[C@@H](N)CCCN=C(N)N[N+](=O)[O-] falls below 80%? Thanks.
Result: false (0)

Ask: I'd appreciate it if you could check whether CCCN1CCO[C@@H]2c3cc(O)ccc3OC[C@@H]21 has growth, % of control smaller than 80%.
Result: true (1)

Ask: A record lists O=C1CCC[C@@H]2[C@H]3CCCN4CCC[C@@H](CN12)[C@@H]34 . Is its growth, % of control below 80%?
Result: false (0)

Ask: Strictly below 80% in growth, % of control? COC[C@H]1OC(=O)c2coc3c2[C@@]1(C)C1=C(C3=O)[C@@H]2CC[C@H](O)[C@@]2(C)C[C@@H]1OC(C)=O
Result: true (1)

Ask: Field: below-cutoff. Rule: recorded growth, % of control strictly less than 80%. Subject: CCCCCC[C@H]1C(=O)O[C@H](C)[C@H](NC(=O)c2cccc(NC=O)c2O)C(=O)O[C@@H](C)[C@@H]1OC(=O)CC(C)C
Result: true (1)

Ask: Does this compound meet the criterion growth, % of control < 80%? C[C@]12Cc3cn[nH]c3C[C@@H]1CC[C@@H]1[C@H]2CC[C@@]2(C)[C@H]1CC[C@]2(C)O
Result: true (1)

Ask: Say whether its growth, % of control is strictly beneath 80%. Entry: CC(C)N[C@@H]1CCn2c(=O)[nH]c3cccc(c32)[C@@H]1O
Result: false (0)
